# EXPERIMENTAL TARGET: HsPrx3 (human peroxiredoxin 3, wtHsPrx3) (Homo sapiens)
# Construct: three additional N-terminal Gly; E. coli BL21 Star (DE3); reduced subunit predicted 21,797 Da; three Cys; dodecamer when reduced
# Sequence (P30048 62-256): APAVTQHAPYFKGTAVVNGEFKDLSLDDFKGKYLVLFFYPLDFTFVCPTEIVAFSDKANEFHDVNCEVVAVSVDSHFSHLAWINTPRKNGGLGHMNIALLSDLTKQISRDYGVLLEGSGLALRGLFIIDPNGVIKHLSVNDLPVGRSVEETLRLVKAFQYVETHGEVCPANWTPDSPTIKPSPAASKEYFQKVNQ
# EXPERIMENTAL PROTOCOL: intrinsic tryptophan fluorescence quenching / FRET titration, hyperbolic fit
READOUT LABEL: Kd
Units required after the number.

Which Kd reading was recorded for the molecule O=S(=O)(O)c1cccc2cccc(Nc3ccccc3)c12 [ANS, 8-anilino-1-naphtalene sulfonic acid] ?
65 µM
